System: Amyloid-beta precursor protein (Homo sapiens, UniProt P05067) | Read-out: Kd | Origin: multiple publications
Property measured: Kd (nM)

These recorded examples may help you get a feel for the data.
# Chem smiles, Readout number
records = [
    ("CCOC(=O)CN(CC(=O)OCC)C(=O)CN1C(=O)/C(=C\\c2ccc3c(c2)Sc2ccccc2N3C)SC1=S", 46.3),
    ("C[n+]1c2c(c(N)c3ccccc31)C(=O)/C(=C/c1cccc3ccccc13)CC2.[I-]", 16000),
    ("CCOC(=O)CN1C(=O)/C(=C/c2ccc3c(c2)Sc2ccccc2N3C)SC1=S", 7.5),
]

1 = O=C1CN(Cc2ccc(OCCCN3CCCCC3)cc2)CCN1Cc1ccccc1
2 = CN1c2ccccc2Sc2cc(/C=C3/SC(=S)N(CC(=O)N(CC(=O)O)CC(=O)O)C3=O)ccc21
Request: Among 1 and 2 , whose measured Kd is the smaller figure? Write down the label of the entry you select.
Response: 2
(2: 76.5 nM, 1: 51600 nM)
